Test system: NOMO1
Test: cell viability relative to DMSO control; higher = less cytotoxic
Conditions: HPLM + 10% dialyzed FBS; 48 h; 0.00234 µM

compound | cell viability / %
Oc1ccc(OCc2ccccc2)cc1 | 131
Cc1cn2cc(C(=O)N(C)CCO)cc(N[C@@H]3CCOc4cccc(C)c43)c2n1 | 105
C/C1=C2/[N]3[Co+]456([OH])<-[N]7=C1[C@@H](CCC(N)=O)C(C)(C)/C7=C/C1=[N]->4C(=C(/C)C4=[N]->5[C@@](C)([C@H]3[C@H](CC(N)=O)[C@@]2(C)CCC(=O)NC[C@@H](C)OP(=O)([O-])O[C@H]2[C@@H](O)[C@@H](n3c[n]->6c5cc(C)c(C)cc53)O[C@@H]2CO)[C@@](C)(CC(N)=O)[C@@H]4CCC(N)=O)/[C@@](C)(CC(N)=O)[C@@H]1CCC(N)=O | 110
N[S+](=O)([O-])c1ccc(Nc2nc(OCC3CCCCC3)c3[nH]cnc3n2)cc1 | 131
COc1cc(C(=O)NC2CCN(C)CC2)ccc1Nc1ncc2c(n1)N(C1CCCC1)CCC(=O)N2C(C)C | 121
CCC(CCCC)COC(=O)C(\C#N)=C(\c1ccccc1)c2ccccc2 (centres undefined) | 102
CC(=O)N(C)C1(c2ccccc2)CCN(CCC[C@]2(c3ccc(Cl)c(Cl)c3)CCCN(C(=O)c3ccccc3)C2)CC1 | 124
Cc1c(N)nc([C@H](CC(N)=O)NC[C@@H](N)C(N)=O)nc1C(=O)N[C@H](C(=O)N[C@@H](C)[C@H](O)[C@@H](C)C(=O)N[C@@H](C(=O)NCCc1nc(-c2nc(C(=O)NCCC[S+](C)C)cs2)cs1)[C@@H](C)O)C(O[C@H]1O[C@H](CO)[C@H](O)[C@@H](O)[C@H]1O[C@H]1O[C@H](CO)[C@@H](O)[C@H](OC(N)=O)[C@@H]1O)c1c[nH]cn1 (some centres undefined) | 112
Nc1ccc(C(=O)c2cc3c(ccc4ccccc43)[nH]2)cc1 | 121
Cc1nc(-c2ccc(OCC(C)C)c(C#N)c2)sc1C(=O)O | 123
NC(=O)c1cnccn1 | 120
NC1=NC(=O)N2CC12 (centres undefined) | 94.5
C[C@@H]1CC[C@@]2(CC[C@]3(C)\C(=C/C[C@@H]4[C@@]5(C)CC[C@H](O)C(C)(C)[C@@H]5CC[C@@]34C)[C@@H]2[C@H]1C)C(O)=O | 120
O=C(O)CCCCCC(=O)NN=C1CCCC1 | 96
NC(=O)c1cccc(-c2cc(Nc3ccc(OC(F)(F)F)cc3)ncn2)c1 | 99.5
CCNC(=O)Nc1ccc(Oc2ncnc(N)c2/C=N/OC)cc1Cl | 113
C[S+](=O)([O-])Oc1ccc2c(NC(N)=O)c(C(=O)c3ccc(Cl)cc3Cl)oc2c1 | 103
CO[C@H]1CCC(O[C@H]2C[C@H]([C@]3(C)CC[C@]4(C[C@H](O)[C@@H](C)[C@@H]([C@@H](C)/C=C(\C)C(=O)[C@H](C)C[C@H](C)C(=O)[O-])O4)O3)O[C@]3(O[C@@H]([C@H]4O[C@@](O)(CO)[C@H](C)C[C@@H]4C)C[C@@H]3C)[C@@H]2C)O[C@@H]1C (some centres undefined) | 124
CCNC(=O)CCC/C=C\C[C@@H]1[C@@H](/C=C/C(O)CCc2ccccc2)[C@@H](O)C[C@@H]1O (some centres undefined) | 108
O=C1NC(=O)/C(=C/c2ccc3nccnc3c2)S1 | 124
CCn1nnc2c(N3CCOCC3)nc(-c3ccc(NC(=O)Nc4ccc(C(=O)N5CCN(C)CC5)cc4)cc3)nc21 | 109
CCCOc1ccc(C(=O)OCCN(CC)CC)cc1N | 124
CCN(CC)CCNC(=O)c1c(C)[nH]c(/C=C2\C(=O)Nc3ccc(F)cc32)c1C | 103
C[C@H](CCC(=O)O)[C@H]1CC[C@H]2[C@@H]3[C@H](O)C[C@@H]4C[C@H](O)CC[C@]4(C)[C@H]3CC[C@]12C | 93.7
